experiment: Ester stability assay in buffer (RP-HPLC); type: physicochemical; settings: PBS buffer pH 7.4, 16 h, room temperature, 1 mM compound
readoutName: percentage of compound peak area present after 16 h of incubation, PBS (%)

{"compound": "CC(=O)Oc1cc(C)cc(C)c1C(C)(C)CC(=O)N[C@@H](CCN(C/C=C/c1ccc(C#N)cc1)C[C@H]1O[C@@H](n2cnc3c(N)ncnc32)[C@H](O)[C@@H]1O)C(=O)OC(C)C [Compound 14e]", "result": 91.13}

A = CCCOC(=O)[C@@H](N)CCN(C/C=C/c1ccc(C#N)cc1)C[C@H]1O[C@@H](n2cnc3c(N)ncnc32)[C@H](O)[C@@H]1O [Compound 12d]
B = N#Cc1ccc(/C=C/CN(CC[C@H](N)C(=O)OCc2ccccc2)C[C@H]2O[C@@H](n3cnc4c(N)ncnc43)[C@H](O)[C@@H]2O)cc1 [Compound 12f]
Ask: percentage of compound peak area present after 16 h of incubation, PBS comparison. Which is larger, A or B ? Respond with the label that goes with your answer.
Reply: A
(A: 71.96%, B: 33.43%)

---

assay: Ester stability assay in buffer (RP-HPLC); type: physicochemical; settings: PBS pH 7.4 and Tris pH 8.4, over 16 h
readoutName: hydrolytic stability in buffer (in words)

{"molecule": "CC(=O)Oc1cc(C)cc(C)c1C(C)(C)CC(=O)N[C@@H](CCN(C/C=C/c1ccc(C#N)cc1)C[C@H]1O[C@@H](n2cnc3c(N)ncnc32)[C@H](O)[C@@H]1O)C(=O)O [Compound 14a]", "result": "most stable"}
{"molecule": "CC(C)OC(=O)[C@@H](N)CCN(C/C=C/c1ccc(C#N)cc1)C[C@H]1O[C@@H](n2cnc3c(N)ncnc32)[C@H](O)[C@@H]1O [Compound 12e]", "result": "most stable"}
{"molecule": "CC(=O)Oc1cc(C)cc(C)c1C(C)(C)CC(=O)N[C@@H](CCN(C/C=C/c1ccc(C#N)cc1)C[C@H]1O[C@@H](n2cnc3c(N)ncnc32)[C@H](O)[C@@H]1O)C(=O)OC(C)C [Compound 14e]", "result": "most stable"}

---

experiment: Ester stability assay in buffer (RP-HPLC); assay type: physicochemical; settings: PBS buffer pH 7.4, 16 h, room temperature, 1 mM compound
readoutName: percentage of compound peak area present after 16 h of incubation, PBS (%)

{"molecule": "COC(=O)[C@H](CCN(C/C=C/c1ccc(C#N)cc1)C[C@H]1O[C@@H](n2cnc3c(N)ncnc32)[C@H](O)[C@@H]1O)NC(=O)CC(C)(C)c1c(C)cc(C)cc1OC(C)=O [Compound 14b]", "unitLabel": "%", "result": 88.08}
{"molecule": "CCCOC(=O)[C@H](CCN(C/C=C/c1ccc(C#N)cc1)C[C@H]1O[C@@H](n2cnc3c(N)ncnc32)[C@H](O)[C@@H]1O)NC(=O)CC(C)(C)c1c(C)cc(C)cc1OC(C)=O [Compound 14d]", "unitLabel": "%", "result": 90.30}
{"molecule": "CC(C)OC(=O)[C@@H](N)CCN(C/C=C/c1ccc(C#N)cc1)C[C@H]1O[C@@H](n2cnc3c(N)ncnc32)[C@H](O)[C@@H]1O [Compound 12e]", "unitLabel": "%", "result": 98.59}
{"molecule": "CC(=O)Oc1cc(C)cc(C)c1C(C)(C)CC(=O)N[C@@H](CCN(C/C=C/c1ccc(C#N)cc1)C[C@H]1O[C@@H](n2cnc3c(N)ncnc32)[C@H](O)[C@@H]1O)C(=O)O [Compound 14a]", "unitLabel": "%", "result": 99.10}

Cited source: paper PMC8466754
